Each recorded value in this set is attributed to PubChem BioAssay (NCI).

test system: BT-549 breast; assay: NCI tumour cell line growth inhibition, 48 h
experimentalEndpoint: TGI

Guide cases for TGI, answers given:
C#Cc1cccc(Nc2ncnc3cc(OCCOC)c(OCCOC)cc23)c1
98.7 µM
CC1=C([Se]CC(OC(=O)CC[Se]c2ccccc2)C(=O)NCCCCCC(=O)OCc2ccccc2)C(=O)c2ccccc2C1=O (stereo not given)
12.2 µM
Cc1ccc(C2(N3CCOCC3)OC(C)(C)c3cccc4cccc2c34)cc1 (stereo not given)
33.6 µM
CC(C)(C)N1CCC1C(N)=O (stereo not given)
> 100 µM

Find the recorded TGI belonging to CCC(=O)Nc1ccc(N2C(=O)/C(=C/c3ccc(O)c(OC)c3)N=C2c2ccccc2)cc1 and report it.
44.9 µM

Continue with O=C1CCC(Cc2ccc(Cl)cc2Cl)C(=O)N1 (stereo not given)
> 100 µM

Continue with Cc1c(N=Nc2ccc([N+](=O)[O-])cc2)nc2scc(-c3ccccc3)n12
> 100 µM

Continue with CCn1c(O)c(C(=O)NC(C)c2ccc([N+](=O)[O-])cc2)c(=O)n(CC)c1=S (stereo not given)
8.8 µM

Continue with c1cc2c3c(c1)[C@@H]1O[C@@H]1c1cccc(c1-3)[C@@H]1O[C@H]21
98.5 µM

Continue with O=C1Sc2cc3ccccc3cc2C(=O)Sc2cc3ccccc3cc21
> 100 µM

----------
test system: NCI-H23 lung; test: NCI tumour cell line growth inhibition, 48 h
*1 amine or outer side, *2 acyl side, *3 side chain or, on linkers, in order; H or OH if unused. Where a SMILES comes first, the peptide text is derived from it. Bridges are numbered along the chain shown (N, C = ends). Roman numbers before positions name the chains, in order. [ ]: non-standard residue; d: D form. Actinocin(9to1) = Cc1c2oc3c(C)ccc(C(=O)[*:1])c3nc-2c(C(=O)[*:2])c(N)c1=O; NMeV = CN[CH](C(=O)O)C(C)C; Sar = CNCC(=O)O
experimentalEndpoint: TGI

Cc1cc(=O)[nH]c(NN2C(Cl)C(=O)C2c2ccco2)n1 (stereo not drawn)
> 100 µM
CC(=O)Nc1ccc(/C=C/[N+](=O)[O-])cc1
10.9 µM
CN(C)CCCn1c2c(c3cnccc3c1=O)C(=O)c1ccccc1-2
3.73 µM
COC(=O)c1c(C)cccc1C1CN=NC12Cc1cccc(C)c1C2=O (stereo not drawn)
> 100 µM
CC(CN(CP(=O)([O-])[O-])CP(=O)([O-])[O-])N(CP(=O)([O-])[O-])CP(=O)([O-])[O-].N.N.[Pt+2] (stereo not drawn)
> 100 µM

Form: Entry = O=P1(N(CCCl)CCCl)NCCCO1 (stereo not drawn) | System = NCI-H23 lung | TGI = ____
> 250 µM

Continue with N#CC(NNC(=O)c1ccccc1O)c1ccc(O)cc1 (stereo not drawn)
> 100 µM

Continue with Cc1cn(C2CC(SCCO)C(CO)O2)c(=O)[nH]c1=O (stereo not drawn)
> 100 µM

Continue with O=C1c2ccccc2C2(c3ccc(Cl)cc3)N[C@@H]3CCCC[C@@H]3N12 (stereo partly drawn)
> 100 µM

Continue with CCCCCCCCCCCCCCCCCC(=O)OCC(CN(C)CCN(C)C)OC(=O)CCCCCCCCCCCCCCCCC (stereo not drawn)
> 100 µM

Continue with Cc1c2oc3c(C)ccc(C(=O)NC4C(=O)NC(Cc5ccc(O)cc5)C(=O)N5CCCC5C(=O)N(C)CC(=O)N(C)C(C(C)C)C(=O)OC4C)c3nc-2c(C(=O)NC2C(=O)NC(Cc3ccc(O)cc3)C(=O)N3CCCC3C(=O)N(C)CC(=O)N(C)C(C(C)C)C(=O)OC2C)c(N)c1=O (stereo not drawn) (I: TYP[Sar][NMeV] / II: TYP[Sar][NMeV]; ester I:1-I:C, II:1-II:C; linker I:N-II:N via Actinocin(9to1); configuration not given here)
> 79.2 µM

Continue with O=C(c1ccccc1)c1ccc2nc(-c3c(Cl)c(Cl)c(Cl)c(Cl)c3C(=O)Nc3ccco3)[nH]c2c1
> 100 µM

Continue with COc1cc2oc(=O)ccc2cc1C1OC(=O)C2OC21C (stereo not drawn)
> 100 µM

Continue with CCOC(=O)NC(OCc1ccccc1)(C(=O)OC)C(F)(F)F (stereo not drawn)
> 100 µM

Continue with Cc1c(Cl)c(=O)oc2cc(OCC(O)COC(C)C)ccc12 (stereo not drawn)
> 100 µM

Continue with Cc1cn([C@@H]2C[C@](C)(CO)N(C)O2)c(=O)[nH]c1=O
> 100 µM

Continue with [Cl][Bi]([O]c1ccccn1)[O]c1ccccn1
> 100 µM

Continue with CCO[C@@H]1OC(=O)[C@](C)(C(C)=O)[C@@H]1C
60.1 µM

----------
TGI values for the molecules below.
tested on: U251 CNS; experiment: NCI tumour cell line growth inhibition, 48 h

Cc1cccc(=O)c([O-])c1.Cc1cccc(=O)c([O-])c1.Cc1cccc(=O)c([O-])c1.Cc1cccc(=O)c([O-])c1.[Th+4]
> 100 µM
NC(=O)c1cnc(N[C@@H]2CCCC[C@@H]2N)nc1Nc1cccc(-n2nccn2)c1
18.2 µM

Find the recorded TGI belonging to O=C(c1ccccc1)c1ccc2nc(-c3c(Cl)c(Cl)c(Cl)c(Cl)c3C(=O)Nc3ccco3)[nH]c2c1 and report it.
> 100 µM

Continue with CCCOC1OC(CS(=O)(=O)O)C(OC(C)=O)C(OC(C)=O)C1OC(C)=O (centres undefined)
> 100 µM

----------
tested on: IGROV1 ovarian; experiment: NCI tumour cell line growth inhibition, 48 h
TGI values for the compounds below.

Guide cases for TGI, answers given:
CC(=O)OC1C(=O)C(O)C(C)OC1O[C@@H]1C[C@@]2(C)[C@@H]3CC=C4[C@@H](C[C@H](O)C(=O)C4(C)C)[C@]3(C)C(=O)C[C@]2(C)[C@H]1[C@@](C)(O)C(=O)/C=C/C(C)(C)O (stereo not given in full)
4.62 µM
C#Cc1cccc(Nc2ncnc3cc(OCCOC)c(OCCOC)cc23)c1
16.9 µM
O=Cc1c(-c2cc(O)ccc2O)nc2sccn12
29.5 µM
CC(C)C(=O)/C=C/c1ccccc1
> 100 µM
O=c1n(C2CCCCC2)c(=C(Cl)Cl)c(=C(Cl)Cl)n1C1CCCCC1
> 100 µM

Find the recorded TGI belonging to COc1ccc(C[C@H]2COC(=O)[C@@H]2Cc2ccccc2)cc1OC and report it.
> 100 µM

Continue with CCCC(CC)c1cc(O)c(O)cc1C(CC)CCC (stereo not given)
> 10 µM

Continue with O=C1C=C[C@@]23CC1C(O)C[C@H]2C=Cc1ccccc13 (stereo not given in full)
> 100 µM

Continue with O=C1/C(=C/c2cccs2)N=C(c2ccccc2)N1c1nc2ccccc2s1
> 100 µM

Continue with Oc1ccc(/C=N\Nc2ccccn2)c(O)c1
3.64 µM

----------
test system: K-562 leukemia; test: NCI tumour cell line growth inhibition, 48 h; in the data active = GI50 below about 0.43 µM; inactive = the rest
Log the outcome using a class from YES = active, NO = inactive

Answered examples (5):
C[C@@H]1C=C(CCCCCCCCCCC[C@H](O)[C@@H]2CCC(=O)O2)C(=O)O1
NO
N[C@@H](Cc1c[nH]c2ccccc12)C(=O)NC1CCN(C(=O)c2c[nH]c3ccccc23)CC1
NO
CC(C)(C)N1CCC1C(N)=O (stereo unspecified)
NO
COc1ccc(-n2c(SCc3cc(OC)c(OC)c(OC)c3)nc3ccc(C)cc3c2=O)c(OC)c1
NO
CN(C)CCCn1c2c(c3cnccc3c1=O)C(=O)c1ccccc1-2
NO

Please let me know the test result on file for CSc1nc2c(c(=O)[nH]1)N=C1c3ccccc3C(=O)C1C(c1ccc(F)cc1)N2 (stereo unspecified) .
NO

Continue with COc1ccccc1-[n+]1cc(-c2ccc(-c3ccccc3)cc2)n2c1CCCCC2
YES

Continue with Oc1ccc(/C=N\Nc2ccccn2)c(O)c1
NO

Continue with Oc1ccc(Cc2ccc(O)c3ncccc23)c2cccnc12
YES

Continue with Cc1cn(C2CC(F)C(CO)O2)c(=O)[nH]c1=O (stereo unspecified)
NO

Continue with CCOP(=O)(OCC)C(NC(c1ccccc1)c1ccccc1)c1ccccc1 (stereo unspecified)
NO

----------
system: OVCAR-5 ovarian; experiment: NCI tumour cell line growth inhibition, 48 h; in the data active means GI50 below about 0.43 µM; inactive means the rest
Log the outcome using a class from T = active, F = inactive

Answered examples (8):
COCCn1cc(-c2csc(-c3c[nH]c4ccccc34)n2)c2cccnc21
F
C=C1C(=O)O[C@H]2[C@H]1CC/C(COC(=O)NCc1cc3ccccc3[nH]1)=C\CC[C@@]1(C)O[C@@H]21
F
CSc1nc2c(c(=O)[nH]1)N=C1c3ccccc3C(=O)C1C(c1ccc(F)cc1)N2 (stereo unspecified)
F
Cc1ccc(C(=O)Nc2ccc(CN3CCN(C)CC3)c(C(F)(F)F)c2)cc1C#Cc1cnc(N)cc1C#N
T
Cc1cn(C2CC(F)C(CO)O2)c(=O)[nH]c1=O (stereo unspecified)
F
CC12CCC3C(CC=C4CC(O)CCC43C)C1C/C(=C\N1CCCC1)C2=O (stereo unspecified)
F
COc1ccccc1-[n+]1cc(-c2ccc(-c3ccccc3)cc2)n2c1CCCCC2
F
O=C(/C=C/c1cccnc1)NCCCCC1CCN(C(=O)c2ccccc2)CC1
F

Please let me know the test result on file for Cc1ccc(C(CN(C)C)C(=O)c2ccccc2)cc1 (stereo unspecified) .
F

Continue with [Cl][Bi]([O]c1ccccn1)[O]c1ccccn1
F

Continue with NC(=O)c1cnc(N[C@@H]2CCCC[C@@H]2N)nc1Nc1cccc(-n2nccn2)c1
F

Continue with O=S(=O)([O-])c1cccc2cccc(N=Cc3ccccc3[O-])c12.O=S(=O)([O-])c1cccc2cccc(N=Cc3ccccc3[O-])c12.[O]=[U]=[O]
F

Continue with O=c1cccc(C#CC#C[C@H]2O[C@@H]2CO)o1
F

Continue with COc1ccc(-n2c(SCc3cc(OC)c(OC)c(OC)c3)nc3ccc(C)cc3c2=O)c(OC)c1
F

Continue with Cc1ccc2c(c1)nc(C(=O)c1ccco1)c(C(F)(F)F)[n+]2[O-]
F

Continue with CC[C@]1(O)CC2CN(CCc3c([nH]c4ccccc34)[C@@](C(=O)OC)(c3cc4c(cc3OC)N(C)[C@H]3[C@@](O)(C(=O)OC)[C@H](OC(C)=O)[C@]5(CC)C=CCN6CC[C@]43[C@@H]65)C2)C1 (stereo partly specified)
T
